Data credit: patent US10654792B2

Each entry below carries its reported cellular pERK5 decrease (%).
target: MEK5 (Homo sapiens); construct: The MDA-MB-231 triple negative breast cancer cell line was pretreated with compounds; endogenous in cells; host or cells: MDA-MB-231; test: Western blot, cellular pERK5 decrease after EGF stimulation; assay type: cell-based; conditions: MDA-MB-231 cells, compound 10 μM pretreatment 30 min, then EGF 50 ng/mL 15 min
Sequence (Q13163 whole entry): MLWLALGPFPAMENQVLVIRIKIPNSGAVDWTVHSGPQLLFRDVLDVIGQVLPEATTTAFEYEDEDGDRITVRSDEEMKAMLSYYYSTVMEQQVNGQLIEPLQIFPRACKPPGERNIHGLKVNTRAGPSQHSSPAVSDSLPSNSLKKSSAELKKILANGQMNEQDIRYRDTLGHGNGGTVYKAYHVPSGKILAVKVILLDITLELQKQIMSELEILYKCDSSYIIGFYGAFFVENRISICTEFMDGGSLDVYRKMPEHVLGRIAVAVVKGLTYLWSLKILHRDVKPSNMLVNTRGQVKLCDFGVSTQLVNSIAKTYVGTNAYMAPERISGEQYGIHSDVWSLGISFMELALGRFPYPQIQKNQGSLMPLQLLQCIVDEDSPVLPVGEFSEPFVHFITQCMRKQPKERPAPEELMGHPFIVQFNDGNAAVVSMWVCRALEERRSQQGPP
QUANTITY_MEASURED: cellular pERK5 decrease (%)

COMPOUND | NUMBER
COC(=O)c1ccc(F)c(F)c1Nc1ccc(I)cc1F [SC-1-72 Ester] | 20.1
O=C(O)c1ccc(F)c(F)c1Nc1ccccc1 [SC-1-175] | 2.1
N#CC(=C(/N)Sc1ccccc1N)/C(C#N)=C(\N)Sc1ccccc1N [U0126, reference compound] | 0.28
O=C(O)c1ccc(F)c(F)c1Nc1ccc(I)cc1F [SC-1-148] | 20.1
